B1: Azoarcus group I ribozyme (parent)
chain: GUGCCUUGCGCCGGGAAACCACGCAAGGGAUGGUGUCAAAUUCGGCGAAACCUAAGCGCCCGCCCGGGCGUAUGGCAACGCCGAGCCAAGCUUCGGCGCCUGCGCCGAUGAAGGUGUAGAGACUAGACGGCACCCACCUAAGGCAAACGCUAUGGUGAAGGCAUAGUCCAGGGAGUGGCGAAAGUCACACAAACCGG

Variants of: B1
procedure_details: reverse-splicing fitness (ratio to wild type); higher = more active; in vitro selection; Mg2+ level not given
Okay, here is how we bin by reverse-splicing fitness: low (below 0.01), moderate (0.01 to below 0.02), high (0.02 or more)

Record excerpt, results attached:
>  <residue_change>
A111G A120G A145U C150G C169U

>  <class_label>
high

$$$$
>  <residue_change>
A111G A120G C150A C169A U176C

>  <class_label>
high

$$$$
>  <residue_change>
C82U A120C A145U C150U C169G U176A

>  <class_label>
low

$$$$
>  <residue_change>
C82U A120G A145U C150U C169A U176A

>  <class_label>
moderate

$$$$
>  <residue_change>
C82G A120G C169U U176C

>  <class_label>
high

$$$$
>  <residue_change>
C82A A145C C150A

>  <class_label>
high

$$$$
>  <residue_change>
C82G A111U A120G C150U C169G

>  <class_label>
moderate

$$$$
>  <residue_change>
A111G A120G A145U C150G C169U U176A

>  <class_label>
moderate

$$$$

Could you place C82A A120U A145C C150U in its proper category? Many thanks. high

Could you place C82A A111U C169U U176G in its proper category? Many thanks. low

Could you place C82A A120G A145G C169A U176C in its proper category? Many thanks. high

Could you place C82U A111G A120G A145U C150G C169A U176C in its proper category? Many thanks. low

Could you place C82A A111C A145U C150G C169G U176G in its proper category? Many thanks. low

Could you place C82G A111G A120C A145U C150G U176A in its proper category? Many thanks. low

Could you place C82A A111C C169G U176C in its proper category? Many thanks. high

Could you place C82U A120C C150G U176C in its proper category? Many thanks. moderate

Could you place C82U A111C A120U A145C C169U U176C in its proper category? Many thanks. low

Could you place C82G A111U A120U C169U U176A in its proper category? Many thanks. low

Could you place C82G A120C A145C C150A C169U U176A in its proper category? Many thanks. moderate

Could you place A120G A145C in its proper category? Many thanks. high

Could you place C82G A111G A145U C150A C169G U176A in its proper category? Many thanks. moderate
